These entries and their values trace back to ChEMBL document CHEMBL1961873.

TESTED TARGET: Proto-oncogene tyrosine-protein kinase Src (Homo sapiens);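 further: values are averaged inhibition of Src, tested against the GSK PKIS kinase inhibitor set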
CONDITION: at 0.1 µM
MEASUREMENT LABEL: inhibition (%)
Form entry: value (%) — number only.

Which measured inhibition value corresponds to O=C(O[C@H]1CN[C@H](C#Cc2cc3ncnc(Nc4ccc5c(ccn5Cc5cc(F)ccc5F)c4)c3s2)C1)N1CCOCC1 ?
0.52

# repeat for O=C(O[C@H]1CN[C@H](C#Cc2cc3ncnc(Nc4ccc(OCc5cccc(F)c5)c(Cl)c4)c3s2)C1)N1CCOCC1
-0.25

What about this compound? O=C(Nc1n[nH]c2nnc(-c3cccnc3)cc12)C1CC1
0.98

Same thing, different compound: COc1ccc(-c2nn3ncccc3c2-c2ccnc(Nc3ccc(F)c(F)c3)n2)cc1
3.58

What do you have for CC1=C(C(=O)Nc2ccc3[nH]ncc3c2)C(c2ccc(F)cc2)N=C(c2ccc(C(F)(F)F)nc2)N1 (stereo not drawn) ?
-1.49

Try Fc1ccc(Nc2nccc(-c3c(-c4ccc(C(F)(F)F)cc4)nn4ncccc34)n2)cc1F next.
-0.44

Also check O=C(O[C@H]1CN[C@H](C#Cc2cc3ncnc(Nc4ccc5c(cnn5Cc5ccccc5)c4)c3s2)C1)N1CCOCC1
0.01

How about this compound: CNC(=O)c1ncccc1Nc1nc(Nc2cc3c(cc2OC)CCCN3C(=O)CN(C)C)nc2[nH]ccc12
0.68

* * *

So I've got a bunch of molecules here, and I need their inhibition values.
TESTED TARGET: Tyrosine-protein kinase SYK (Homo sapiens);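 further: reported percentages are mean inhibition values for SYK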
CONDITION: at 0.1 µM
Return type: number; implicit unit %.

I have this molecule here, COc1cccc(Nc2nccc(-c3cnn4ncccc34)n2)c1 , and I need its recorded inhibition.
-0.98

# iterate: NS(=O)(=O)c1cccc(N/C=C2\C(=O)Nc3ccccc32)c1
-6.93

Next up: CN1CCC(n2cnc(-c3ccc(F)cc3)c2-c2ccnc(NCCO)n2)CC1
-2.08

What do we get for CNC(=O)c1cncc(/C=C/c2ccccc2C)c1 ?
-0.75

Then CCn1c(-c2nonc2N)nc2cncc(C(=O)NCCNC)c21 ?
-1.48

One more molecule: c1ccc(-c2n[nH]cc2-c2ccnc(-c3ccc(OCCn4ccnc4)cc3)c2)nc1
-0.7

O=C(O[C@H]1CN[C@H](C#Cc2cc3ncnc(Nc4ccc5c(ccn5Cc5cc(F)ccc5F)c4)c3s2)C1)N1CCOCC1 ?
-0.55

Same read-out for Cc1cc(O)cc(C)c1/C=C/c1cncc(C(N)=O)c1 ?
-0.5

Request: CCN1CCC(C(=O)Nc2n[nH]c3nnc(-c4cccc(F)c4F)cc23)CC1
0.98

Follow-up item: Cc1c2ccc(N(C)c3ccnc(Nc4cccc(S(N)(=O)=O)c4)n3)cc2nn1C
-4.22

Next record, please: COc1c(C(N)=O)cc(-c2ccc(Cl)cc2)cc1-c1ccc(S(N)(=O)=O)cc1
1.78

Queued: CS(=O)(=O)CCNCc1ccoc1-c1ccc2ncnc(Nc3ccc(OCc4ccccc4)cc3)c2c1
-2.93

Please do the same for COc1ccc(-c2nn3ncccc3c2-c2ccnc(Nc3ccc(F)c(F)c3)n2)cc1 as well.
-2.45

What about CCCNc1cccc(-n2ncc3c(N/N=C/c4ccncc4)ncnc32)c1 ?
3.8

Please give the result for O=C(Nc1n[nH]c2nnc(-c3cccnc3)cc12)C1CC1 too.
1.35

What do you get for O=C1Nc2ccccc2/C1=C1\CCc2cc(O)ccc21 ?
-8.61

Query CS(=O)(=O)Nc1ccc(-c2cc(-c3ccccc3)cc(C(N)=O)c2N)cc1 next
-0.83

How about CC1=C(C(=O)Nc2ccc3[nH]nc(C)c3c2)C(c2ccc(C(F)(F)F)cc2)CC(=O)N1 (stereo not given) ?
-4.6

Subsequent entry: Cc1nnc(-c2cccc(-c3ccc(C(=O)NCC4CC4)cc3)c2)o1
-3.49

Query COc1cccc(-n2ncc3c(N/N=C/c4ccc(C(=O)NCCN(C)C)cc4)ncnc32)c1 next
-2.88

* * *

TESTED TARGET: Tyrosine-protein kinase ABL2 (Homo sapiens) (UniProt P42684);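 further: values are mean percent inhibition of ARG (ABL2), measured within the GSK PKIS set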
Sequence (P42684 whole entry): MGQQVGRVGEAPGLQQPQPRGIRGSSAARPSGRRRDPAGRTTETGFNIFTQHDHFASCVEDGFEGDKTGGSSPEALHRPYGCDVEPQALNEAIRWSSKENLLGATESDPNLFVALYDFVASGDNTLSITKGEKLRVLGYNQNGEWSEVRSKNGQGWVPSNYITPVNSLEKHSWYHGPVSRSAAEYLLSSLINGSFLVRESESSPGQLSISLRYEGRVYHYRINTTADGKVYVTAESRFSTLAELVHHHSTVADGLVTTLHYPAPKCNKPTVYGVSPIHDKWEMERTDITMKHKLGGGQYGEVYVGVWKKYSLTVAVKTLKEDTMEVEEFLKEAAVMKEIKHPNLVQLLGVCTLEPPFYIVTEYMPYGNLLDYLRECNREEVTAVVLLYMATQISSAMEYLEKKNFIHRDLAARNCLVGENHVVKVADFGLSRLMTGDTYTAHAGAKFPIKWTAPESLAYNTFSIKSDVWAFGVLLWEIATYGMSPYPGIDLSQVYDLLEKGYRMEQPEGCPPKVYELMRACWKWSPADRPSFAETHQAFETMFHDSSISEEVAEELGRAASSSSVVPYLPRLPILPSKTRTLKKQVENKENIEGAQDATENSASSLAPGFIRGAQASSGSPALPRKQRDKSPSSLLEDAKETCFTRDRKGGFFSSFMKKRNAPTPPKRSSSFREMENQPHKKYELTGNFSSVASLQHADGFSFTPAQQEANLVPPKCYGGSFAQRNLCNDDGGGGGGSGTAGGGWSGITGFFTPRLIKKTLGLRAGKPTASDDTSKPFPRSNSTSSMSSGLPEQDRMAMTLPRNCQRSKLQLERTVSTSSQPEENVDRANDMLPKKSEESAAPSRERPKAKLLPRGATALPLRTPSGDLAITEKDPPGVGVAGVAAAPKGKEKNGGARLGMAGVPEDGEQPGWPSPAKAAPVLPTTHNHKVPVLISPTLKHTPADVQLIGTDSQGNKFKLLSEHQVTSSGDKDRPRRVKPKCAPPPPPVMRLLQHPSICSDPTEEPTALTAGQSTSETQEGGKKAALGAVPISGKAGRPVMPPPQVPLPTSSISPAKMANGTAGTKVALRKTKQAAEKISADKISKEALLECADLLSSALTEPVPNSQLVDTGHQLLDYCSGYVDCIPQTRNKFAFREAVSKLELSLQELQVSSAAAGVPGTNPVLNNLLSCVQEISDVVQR
CONDITION: at 0.1 µM
MEASUREMENT LABEL: inhibition (%)
Quick note: give the figure in %, leave out the unit.

So what does the record say about inhibition for CCn1c(-c2nonc2N)nc2cncc(C(=O)NCCNC)c21 ?
2.36

Moving on to the next compound: COc1ccc2ncn(-c3cc(O[C@H](C)c4ccccc4C(F)(F)F)c(C(N)=O)s3)c2c1
4.37

Also COC(=O)Nc1nc2ccc(Oc3ccc(NC(=O)Nc4cc(C(F)(F)F)ccc4F)cc3)cc2s1 , if possible.
51.4

Same thing, different compound: COc1cc2c(cc1Nc1nc(Nc3cccc(F)c3C(N)=O)c3cc[nH]c3n1)N(C(=O)CN1CCN(C(C)C)CC1)CC2
-1.03

And COC(=O)Nc1nc2cc(Oc3ccc(NC(=O)Nc4ccccc4)cc3)ccc2[nH]1 ?
9.07

Same again, this time with Cn1c(-c2nonc2N)nc2cnccc21
2.62

Moving on to CCN1CCC(C(=O)Nc2n[nH]c3nnc(-c4cccc(F)c4F)cc23)CC1
1.05

Also need Cc1cc(O)cc(C)c1/C=C/c1cncc(C(N)=O)c1 , thanks.
12.2

// repeat for CC1=C(C(=O)Nc2ccc3[nH]nc(C)c3c2)C(c2ccc(C(F)(F)F)cc2)CC(=O)N1 (stereo unspecified) and report
7.56

What would you report for Cc1nnc(-c2cccc(-c3ccc(C(=O)NCC4CC4)cc3)c2)o1 ?
3.81

Similarly, CNC(=O)c1sc(-n2cnc3cc(OC)c(OC)cc32)cc1OCc1ccccc1C(F)(F)F ?
5.79

Input CCS(=O)(=O)c1ccc(OC)c(Nc2ncc(-c3cccc(C(C)=O)c3)o2)c1
13

Let us now turn to CN1CCC(n2cnc(-c3ccc(F)cc3)c2-c2ccnc(NCCO)n2)CC1
3.07

How about this compound: CN(C)CCNC(=O)Nc1ccc(N(C)c2ccnc(Nc3ccc(CS(C)(=O)=O)cc3)n2)cc1
5.95

Can you check Fc1ccc(Nc2nccc(-c3c(-c4ccc(C(F)(F)F)cc4)nn4ncccc34)n2)cc1F next?
3.43

Same again, this time with CC(C)c1ccc(-c2cc(-c3c[nH]nc3-c3ccccn3)ccn2)cc1
8.41

* * *

What inhibition was measured for each of the following?
TESTED TARGET: Serine/threonine-protein kinase 10 (Homo sapiens) (UniProt O94804);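 further: mean percent inhibition of LOK (STK10)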
Sequence (O94804 whole entry, looked up): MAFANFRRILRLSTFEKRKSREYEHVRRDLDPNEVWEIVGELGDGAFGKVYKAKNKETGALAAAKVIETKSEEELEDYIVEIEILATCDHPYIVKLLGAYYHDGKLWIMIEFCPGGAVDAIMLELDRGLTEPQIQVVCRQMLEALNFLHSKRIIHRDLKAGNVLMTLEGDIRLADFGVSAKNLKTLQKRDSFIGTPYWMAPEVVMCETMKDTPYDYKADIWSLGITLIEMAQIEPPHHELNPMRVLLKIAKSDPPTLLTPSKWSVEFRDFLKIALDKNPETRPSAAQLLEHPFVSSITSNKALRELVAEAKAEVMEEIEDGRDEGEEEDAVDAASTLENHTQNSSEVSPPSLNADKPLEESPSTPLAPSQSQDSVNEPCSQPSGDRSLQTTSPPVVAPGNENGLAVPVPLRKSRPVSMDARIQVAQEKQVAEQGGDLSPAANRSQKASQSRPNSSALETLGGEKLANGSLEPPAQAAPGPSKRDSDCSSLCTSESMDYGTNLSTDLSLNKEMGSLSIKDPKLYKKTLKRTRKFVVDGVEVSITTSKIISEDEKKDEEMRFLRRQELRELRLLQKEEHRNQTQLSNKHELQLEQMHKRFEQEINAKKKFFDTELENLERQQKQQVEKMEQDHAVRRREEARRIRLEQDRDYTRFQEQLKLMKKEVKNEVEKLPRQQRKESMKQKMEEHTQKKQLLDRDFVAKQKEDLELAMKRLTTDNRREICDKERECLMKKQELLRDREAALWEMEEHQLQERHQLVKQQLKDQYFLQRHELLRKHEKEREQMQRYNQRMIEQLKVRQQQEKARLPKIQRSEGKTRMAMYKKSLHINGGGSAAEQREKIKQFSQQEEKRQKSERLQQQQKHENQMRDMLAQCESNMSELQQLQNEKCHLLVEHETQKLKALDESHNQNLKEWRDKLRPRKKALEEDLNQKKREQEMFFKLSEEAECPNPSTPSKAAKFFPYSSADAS
CONDITION: at 0.1 µM
Write the value in % as a bare number.

Recorded inhibition for COc1cc(N2CCN(C(C)C)CC2)ccc1Nc1nc(Nc2cccc3ncccc23)c2cc[nH]c2n1 , please?
1.54

// same read-out, input: O=C1Nc2ccccc2/C1=C1\CCc2cc(O)ccc21
6.67

Next up: Fc1ccc(Nc2nccc(-c3c(-c4ccc(C(F)(F)F)cc4)nn4ncccc34)n2)cc1F
3.37

One more compound: COc1ccccc1-c1cc(/C=C2\C(=O)Nc3ncc(Br)cc32)cc(Br)c1O
5.49

Request: CCN1CCC(C(=O)Nc2n[nH]c3nnc(-c4cccc(F)c4F)cc23)CC1
-0.44

Next compound up: Cc1c2ccc(N(C)c3ccnc(Nc4cccc(S(N)(=O)=O)c4)n3)cc2nn1C
23.4

Similarly, N#Cc1ccc2c(-c3ccnc(NC4CC4)n3)c(-c3ccc(F)cc3)nn2c1 ?
2.63

Try the compound CC1=C(C(=O)Nc2ccc3[nH]nc(C)c3c2)C(c2ccc(C(F)(F)F)cc2)CC(=O)N1 (configuration not stated)
2.01

Also O=C(Nc1n[nH]c2nnc(-c3cccnc3)cc12)C1CC1 ?
-0.21

Same for O=C(O[C@H]1CN[C@H](C#Cc2cc3ncnc(Nc4ccc5c(ccn5Cc5cc(F)ccc5F)c4)c3s2)C1)N1CCOCC1
8.09

Follow-up item: O=C(O[C@H]1CN[C@H](C#Cc2cc3ncnc(Nc4ccc5c(cnn5Cc5ccccc5)c4)c3s2)C1)N1CCOCC1
0.93

Cool, now CS(=O)(=O)CCNCc1ccc(-c2ccc3ncnc(Nc4ccc(OCc5cccc(C(F)(F)F)c5)cc4)c3c2)o1
9.88

Now consider CNC(=O)c1sc(-n2cnc3cc(OC)c(OC)cc32)cc1OCc1ccccc1C(F)(F)F and answer again.
10.4

Same thing, different compound: Fc1cccc(COc2ccc(Nc3ncncc3C#Cc3ccccc3)cc2Cl)c1
2.78

# iterate: NS(=O)(=O)c1ccc(N/N=C2\C(=O)Nc3ccc(C(=O)NCc4ccncc4)cc32)cc1
4.56

// query: OCCCNc1nccc(-c2c(-c3ccc(F)cc3)nn3cc(C(F)(F)F)ccc23)n1
6.36

Now try c1ccc(-c2n[nH]cc2-c2ccnc(-c3ccc(OCCn4ccnc4)cc3)c2)nc1 .
2.54

* * *

Give measured inhibition for each item. Keep answers brief.
TESTED TARGET: Mitogen-activated protein kinase kinase kinase kinase 4 (Homo sapiens);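 further: reported figure is an averaged inhibition value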
CONDITION: at 1 µM
Please give a number only; it is taken to be in %.

State its inhibition on Mitogen-activated protein kinase kinase kinase kinase 4 (Homo sapiens): COc1cc2c(cc1Nc1nc(Nc3cccc(F)c3C(N)=O)c3cc[nH]c3n1)N(C(=O)CN1CCN(C(C)C)CC1)CC2
3.14

Please do the same for NS(=O)(=O)c1cccc(N/C=C2\C(=O)Nc3ccccc32)c1 as well.
78.2

What about O=C1Nc2ccccc2/C1=C1\CCc2cc(O)ccc21 ?
66.8
